These entries and their values trace back to ChEMBL document CHEMBL5291721.

# AC50 per entry for Equilibrative nucleoside transporter 1 (Homo sapiens, UniProt Q99808)
Readout Kind: AC50

1) CC(C)(C)c1cc(C(C)(C)C)c(NC(=O)c2c[nH]c3ccccc3c2=O)cc1O [IVACAFTOR] ... > 30 µM
2) CCOc1ccc(Cc2cc([C@@H]3O[C@H](CO)[C@@H](O)[C@H](O)[C@H]3O)ccc2Cl)cc1 [DAPAGLIFLOZIN] ... > 30 µM
3) C#C[C@]1(O)CC[C@H]2[C@@H]3CCc4cc(OC5CCCC5)ccc4[C@H]3CC[C@@]21C [QUINESTROL] ... > 10 µM
4) CN1C(=O)C(O)N=C(c2ccccc2Cl)c2cc(Cl)ccc21 (configuration not stated) [LORMETAZEPAM] ... > 30 µM
5) Cc1cccc(C(C)c2cnc[nH]2)c1C (configuration not stated) [MEDETOMIDINE] ... > 30 µM
6) NS(=O)(=O)Cc1noc2ccccc12 [ZONISAMIDE] ... > 10 µM
7) O=C1C(O)=C([C@H]2CC[C@H](c3ccc(Cl)cc3)CC2)C(=O)c2ccccc21 [ATOVAQUONE] ... > 30 µM
8) Cc1ccc(-c2cc(C(F)(F)F)nn2-c2ccc(S(N)(=O)=O)cc2)cc1 [CELECOXIB] ... 24.4 µM
9) Cc1nnc2n1-c1ccc(Cl)cc1C(c1ccccc1Cl)=NC2 [TRIAZOLAM] ... > 30 µM
10) COc1cc2nc(N3CCN(C(=O)c4ccco4)CC3)nc(N)c2cc1OC [PRAZOSIN] ... > 30 µM
11) C[C@@H](O)[C@H]1C(=O)N2C(C(=O)O)=C(S[C@@H]3CN[C@H](C(=O)N(C)C)C3)[C@H](C)[C@H]12 [MEROPENEM] ... > 300 µM
12) CCCC(=O)O[C@]1(C(=O)CO)CC[C@H]2[C@@H]3CCC4=CC(=O)CC[C@]4(C)[C@H]3[C@@H](O)C[C@@]21C [HYDROCORTISONE BUTYRATE] ... > 10 µM
13) Cn1c(=O)c2c(ncn2CC2OCCO2)n(C)c1=O [DOXOFYLLINE] ... > 30 µM
14) CCCN(CCC)C(=O)C(CCC(=O)O)NC(=O)c1ccccc1 (configuration not stated) [PROGLUMIDE] ... > 30 µM
15) O=C(O)C[C@H](O)C[C@H](O)/C=C/c1c(C2CC2)nc2ccccc2c1-c1ccc(F)cc1 [PITAVASTATIN] ... > 10 µM
16) O=C(O)CCCCCCCC(=O)O [AZELAIC ACID] ... > 10 µM
17) CCN(CC)C(=O)N[C@H]1C[C@@H]2c3cccc4[nH]cc(c34)C[C@H]2N(C)C1 [TERGURIDE] ... > 30 µM

---

# AC50 per entry for Melanocortin receptor 3 (Homo sapiens)
Readout Kind: AC50

1) NC(=O)OCC(COC(N)=O)c1ccccc1 [FELBAMATE] ... > 10 µM
2) CN(C)CCC(c1ccc(Cl)cc1)c1ccccn1 (centres undefined) ... > 30 µM
3) CCCC1O[C@@H]2C[C@H]3[C@@H]4CCC5=CC(=O)C=C[C@]5(C)[C@H]4[C@@H](O)C[C@]3(C)[C@]2(C(=O)CO)O1 (some centres undefined) [BUDESONIDE] ... > 10 µM
4) CC(C)=CCC/C(C)=C/C=C/C(C)=C/C=C/C(C)=C/C=C/C=C(C)/C=C/C=C(C)/C=C/C=C(\C)CCC=C(C)C ... > 30 µM
5) CC(=O)O[C@H]1CC[C@@]2(C)C(=CC[C@@H]3[C@@H]2CC[C@]2(C)C(c4cccnc4)=CC[C@@H]32)C1 [ABIRATERONE ACETATE] ... > 30 µM
6) CC(=O)Nc1ccc(O)cc1 ... > 30 µM
7) CCCN1C[C@H](CSC)C[C@@H]2c3cccc4[nH]cc(c34)C[C@H]21 [PERGOLIDE] ... > 30 µM
8) CCC(C)n1ncn(-c2ccc(N3CCN(c4ccc(OCC5COC(Cn6cncn6)(c6ccc(Cl)cc6Cl)O5)cc4)CC3)cc2)c1=O (centres undefined) ... > 30 µM
9) CN1C(=O)C(O)N=C(c2ccccc2Cl)c2cc(Cl)ccc21 (centres undefined) ... > 30 µM
10) C=CCC1(CC(C)C)C(=O)NC(=O)NC1=O ... > 10 µM
11) CC[C@H]1OC(=O)[C@H](C)[C@@H](O[C@H]2C[C@@](C)(OC)[C@@H](O)[C@H](C)O2)[C@H](C)[C@@H](O[C@@H]2O[C@H](C)C[C@H](N(C)C)[C@H]2O)[C@](C)(O)C[C@@H](C)CN(C)[C@H](C)[C@@H](O)[C@]1(C)O ... > 30 µM
12) CC1(C)O[C@@H]2C[C@H]3[C@@H]4CCC5=CC(=O)C=C[C@]5(C)[C@H]4[C@@H](O)C[C@]3(C)[C@]2(C(=O)CO)O1 [DESONIDE] ... > 10 µM
13) CCCC(=O)O[C@]1(C(=O)CO)CC[C@H]2[C@@H]3CCC4=CC(=O)CC[C@]4(C)[C@H]3[C@@H](O)C[C@@]21C [HYDROCORTISONE BUTYRATE] ... > 10 µM
14) O=C(NCCNCC(O)COc1ccc(O)cc1)N1CCOCC1 (centres undefined) ... > 30 µM
15) COc1ccccc1OCCNCC(O)c1ccc(C)c(S(N)(=O)=O)c1 (centres undefined) ... > 30 µM
16) CO[C@@H]1[C@@H](O[C@@H]2O[C@H](C)[C@@H](O[C@H]3C[C@@](C)(O)[C@@H](OC(=O)CC(C)C)[C@H](C)O3)[C@H](N(C)C)[C@H]2O)[C@@H](CC=O)C[C@@H](C)[C@@H](O)/C=C/C=C/C[C@@H](C)OC(=O)C[C@H]1OC(C)=O ... > 10 µM
17) C/C(O)=C(\C#N)C(=O)Nc1ccc(C(F)(F)F)cc1 [TERIFLUNOMIDE] ... > 30 µM
18) CC(C)(C)c1cc(C(C)(C)C)c(NC(=O)c2c[nH]c3ccccc3c2=O)cc1O ... > 30 µM
19) COc1ccc(-c2ccc3cc(C(=O)O)ccc3c2)cc1C12CC3CC(CC(C3)C1)C2 ... > 30 µM
20) C1CCC(C(CC2CCCCN2)C2CCCCC2)CC1 (centres undefined) ... 8.28 µM
21) N[C@@H]1[C@H]2CN(c3nc4c(cc3F)c(=O)c(C(=O)O)cn4-c3ccc(F)cc3F)C[C@@H]12 ... > 30 µM
22) COc1ccccc1OCC(O)CN1CCN(CC(=O)Nc2c(C)cccc2C)CC1 (centres undefined) ... > 30 µM
23) Cc1ccc(-c2cc(C(F)(F)F)nn2-c2ccc(S(N)(=O)=O)cc2)cc1 ... > 10 µM
24) CCCCc1ncc(/C=C(\Cc2cccs2)C(=O)O)n1Cc1ccc(C(=O)O)cc1 ... > 10 µM
25) CC(=O)OCC(=O)[C@@]12N=C(C)O[C@@H]1C[C@H]1[C@@H]3CCC4=CC(=O)C=C[C@]4(C)[C@H]3[C@@H](O)C[C@@]12C ... > 30 µM
26) COc1ccc2c3c1O[C@H]1C(=O)CC[C@@]4(O)[C@@H](C2)N(C)CC[C@]314 ... > 30 µM
27) COc1ccccc1N1CCN(CCCNc2cc(=O)n(C)c(=O)n2C)CC1 ... > 30 µM
28) COC(=O)[C@H]1[C@H]2C[C@@H]3c4[nH]c5cc(OC)ccc5c4CCN3C[C@H]2C[C@@H](OC(=O)/C=C/c2cc(OC)c(OC)c(OC)c2)[C@@H]1OC ... > 10 µM
29) COC(=O)C1=C(C)NC(C)=C(C(=O)OC(C)(C)CN(C)CCC(c2ccccc2)c2ccccc2)C1c1cccc([N+](=O)[O-])c1 (centres undefined) ... > 30 µM
